Field: total protein half-life in vivo. Provide a value for each of the sequences that follow.
Test: total protein half-life in vivo (active degradation + dilution); higher = more stable protein
Conditions: E. coli NCM3722 delta-hslV; growth: N-lim chemostat; doubling time 6 h
Numbers only, in h.

Quick request: total protein half-life in vivo for each listed item, please.
1. MPWIQLKLNTTGANAEDLSDALMEAGAVSITFQDTHDTPVFEPLPGETRLWGDTDVIGLFDAETDMNDVVAILENHPLLGAGFAHKIEQLEDKDWEREWMDNFHPMRFGERLWICPSWRDVPDENAVNVMLDPGLAFGTGTHPTTSLCLQWLDSLDLTGKTVIDFGCGSGILAIAALKLGAAKAIGIDIDPQAIQASRDNAERNGVSDRLELYLPKDQPEEMKADVVVANILAGPLRELAPLISVLPVSGGLLGLSGILASQAESVCEAYADSFALDPVVEKEEWCRITGRKN [P0A8T1]
2. MSWQEKINAALDARRAADALRRRYPVAQGAGRWLVADDRQYLNFSSNDYLGLSHHPQIIRAWQQGAEQFGIGSGGSGHVSGYSVVHQALEEELAEWLGYSRALLFISGFAANQAVIAAMMAKEDRIAADRLSHASLLEAASLSPSQLRRFAHNDVTHLARLLASPCPGQQMVVTEGVFSMDGDSAPLAEIQQVTQQHNGWLMVDDAHGTGVIGEQGRGSCWLQKVKPELLVVTFGKGFGVSGAAVLCSSTVADYLLQFARHLIYSTSMPPAQAQALRASLAVIRSDEGDARREKLAALITRFRAGVQDLPFTLADSCSAIQPLIVGDNSRALQLAEKLRQQGCWVTAIRPPTVPAGTARLRLTLTAAHEMQDIDRLLEVLHGNG
3. MVKSQPILRYILRGIPAIAVAVLLSACSANNTAKNMHPETRAVGSETSSLQASQDEFENLVRNVDVKSRIMDQYADWKGVRYRLGGSTKKGIDCSGFVQRTFREQFGLELPRSTYEQQEMGKSVSRSNLRTGDLVLFRAGSTGRHVGIYIGNNQFVHASTSSGVIISSMNEPYWKKRYNEARRVLSRS [P0AFV4]
4. MIDDDGYRPNVGIVICNRQGQVMWARRFGQHSWQFPQGGINPGESAEQAMYRELFEEVGLSRKDVRILASTRNWLRYKLPKRLVRWDTKPVCIGQKQKWFLLQLVSGDAEINMQTSSTPEFDGWRWVSYWYPVRQVVSFKRDVYRRVMKEFASVVMSLQENTPKPQNASAYRRKRG [P0A776]

[5.13, 3.29, 2.61, 6.81]

Measured values drawn from the supplement of paper PMC11246515 for this set.
